# System: Plasmodium berghei
# experiment-notes: Prophylactic antimalarial activity against Plasmodium berghei infected Exoerythrocytic mouse model
# Type: functional
MTD overview

compound: COc1cc(C)c2c(-c3cccc(C(F)(F)F)c3)c(OC)cc(NC(C)CCCN)c2n1.O=C(O)CCC(=O)O (stereo not drawn)
MTD: >480 mg/kg/day
//
compound: COc1cccc(-c2c(OC)cc(NC(C)CCCN)c3nc(OC)cc(C)c23)c1.O=C(O)CCC(=O)O (stereo not drawn)
MTD: >480 mg/kg/day
//
compound: COc1cc(NC(C)CCCNC(=O)OC(C)(C)C)c2nc(C(F)(F)F)cc(C)c2c1-c1ccc(C(F)(F)F)cc1 (stereo not drawn)
MTD: >960 mg/kg/day
//
compound: COc1cc(NC(C)CCCNC(=O)OC(C)(C)C)c2nc(C(F)(F)F)cc(C)c2c1-c1cccc(C(F)(F)F)c1 (stereo not drawn)
MTD: >960 mg/kg/day
//
compound: COc1cc(C)c2c(-c3cccc(C)c3)c(OC)cc(NC(C)CCCN)c2n1.O=C(O)CCC(=O)O (stereo not drawn)
MTD: 960 mg/kg/day
//
compound: COc1cc(NC(C)CCCN)c2ncccc2c1 (stereo not drawn) [PRIMAQUINE]
MTD: <120 mg/kg/day
//
compound: COc1cc(C)c2c(-c3ccc(Cl)c(Cl)c3)c(OC)cc(NC(C)CCCN)c2n1.O=C(O)CCC(=O)O (stereo not drawn)
MTD: 120 mg/kg/day
//
compound: COc1cc(NC(C)CCCN)c2nc(C(F)(F)F)cc(C)c2c1-c1ccccc1.O=C(O)CCC(=O)O (stereo not drawn)
MTD: 480 mg/kg/day
